Tested on: L1210 leukemia ip in BDF1 mice, survival T/C
experiment-description: NCI In Vivo Anticancer Drug Screen. Data for tumor model L1210 Leukemia (intraperitoneal) in B6D2F1 (BDF1) mice
reported-conditions: endpoint: mean survival time; dose: 200.0 mg/kg/injection; schedule: Q01DX009 (ip); vehicle: water; higher = longer survival
Inconclusive results and toxic doses are left out.
Consider the following compounds; for each one, report its T/C.

// known answers, use as guide
CCOC(=O)Nc1nc(NC(=O)OCC)c(Cl)nc1Cl
106 % of control
ON1CCCC1
101 % of control
CC(=O)Oc1cc(-c2ccccc2)c(OC(C)=O)cc1-c1ccccc1
101 % of control

Let us move to another entry and its T/C.
Please state recorded T/C (tested on L1210 leukemia ip in BDF1 mice, survival T/C) of Nc1nccnc1C(=O)O 96 % of control

---

Test system: L1210 leukemia ip in BDF1 mice, survival T/C
experiment-description: NCI In Vivo Anticancer Drug Screen. Data for tumor model L1210 Leukemia (intraperitoneal) in B6D2F1 (BDF1) mice
reported-conditions: endpoint: mean survival time; dose: 400.0 mg/kg/injection; schedule: Q04DX003 (ip); vehicle: saline with Tween-80; higher = longer survival
Toxic doses and inconclusive results are not listed.
Consider the following molecules; for each one, report its T/C.

// known answers, use as guide
CCOc1ccc(/C=N/NC(=O)c2ccccc2NC(=O)C2CC2)cc1OC
90 % of control
CCCOP(=O)(OCCC)C(OC(=O)C(C)(C)SC(=S)CCC)=C(C)C
94 % of control
CCNC(=O)OCCN1C(=O)C2C3CCC(O3)C2C1=O (configuration not stated)
97 % of control
COC(=O)C(C(=O)OC)=C(C(=O)OC)C(=O)OC
93 % of control

I'm hoping you can list T/C for every molecule here, please.
1. CC(C)(C)CC(C)(C)c1ccc(OCCOc2ccccc2N)cc1
2. C#CC1(OC(=O)NS(=O)(=O)c2ccc(C)cc2)CCCCC1
3. Clc1ccc(/C=N/Nc2nc3ccccc3s2)c(Cl)c1

1. 97 % of control
2. 101 % of control
3. 93 % of control

I'm hoping you can list T/C for every molecule here, please.
1. N#Cc1cc(C#N)c(NN)nc1N
2. Nc1ccc(Cl)cc1-c1nc2ccccc2[nH]1
3. COC(=O)NC1CC2C=CC1C1C=CC21 (configuration not stated)

["92 % of control", "91 % of control", "100 % of control"]

I'm hoping you can list T/C for every molecule here, please.
1. CCCCN(CCCC)CC(O)c1cc(Cc2ccccc2)nc2c(Cl)cc(Cl)cc12 (configuration not stated)
2. CC(C)(c1ccsc1)c1sccc1C(=O)O
3. O=C(O)CCCCCCCCC1CC(F)(F)C(F)(F)S1 (configuration not stated)
4. O=C(O)C1CC=CCC1C(=O)O (configuration not stated)
5. Nc1ccc2c(c1)Cc1cc(NC(=O)C(F)(F)F)ccc1-2
6. S=c1nn[nH]n1C1CCCCC1
7. O=Cc1ccc(/C=C2\C=Cc3ccccc32)cc1

["100 % of control", "87 % of control", "92 % of control", "91 % of control", "92 % of control", "87 % of control", "92 % of control"]

---

Test system: L1210 leukemia ip in BDF1 mice, survival T/C
experiment-description: NCI In Vivo Anticancer Drug Screen. Data for tumor model L1210 Leukemia (intraperitoneal) in B6D2F1 (BDF1) mice
reported-conditions: endpoint: mean survival time; dose: 20.0 mg/kg/injection; schedule: Q01DX001 (ip); vehicle: saline; higher = longer survival
Inconclusive results and toxic doses are left out.
Consider the following compounds; for each one, report its T/C.

N=C(N)c1ccc(OCCCCCCOc2ccc(C(=N)N)cc2)cc1
103 % of control

I'm hoping you can list T/C for every compound here, please.
1. CC/C=N\NC
2. NC(=S)N/N=C\c1ncnc2nc[nH]c12
3. COc1ccccc1C[N+](C)(C)C

112 % of control
114 % of control
95 % of control

I'm hoping you can list T/C for every compound here, please.
1. CN1C(=O)N(C)C(=O)C(Cc2ccccc2)(Cc2ccccc2)C1=O
2. CC(C)=CCNc1ncnc2nc[nH]c12
3. NC1C2CC3CC(C2)CC1C3 (centres undefined)
4. CC(C)N1CCc2cc3c(cc2C1)OCO3
5. CC1(CCCOc2ccc(NC(=O)CBr)cc2)N=C(N)N=C(N)N1c1ccccc1 (centres undefined)

["105 % of control", "101 % of control", "107 % of control", "110 % of control", "91 % of control"]
